Item-by-item account of pEC50
Target: T1R2/T1R3 receptor (Homo sapiens, UniProt Q7RTX0+Q8TE23)
Sequence (Q8TE23 20-839): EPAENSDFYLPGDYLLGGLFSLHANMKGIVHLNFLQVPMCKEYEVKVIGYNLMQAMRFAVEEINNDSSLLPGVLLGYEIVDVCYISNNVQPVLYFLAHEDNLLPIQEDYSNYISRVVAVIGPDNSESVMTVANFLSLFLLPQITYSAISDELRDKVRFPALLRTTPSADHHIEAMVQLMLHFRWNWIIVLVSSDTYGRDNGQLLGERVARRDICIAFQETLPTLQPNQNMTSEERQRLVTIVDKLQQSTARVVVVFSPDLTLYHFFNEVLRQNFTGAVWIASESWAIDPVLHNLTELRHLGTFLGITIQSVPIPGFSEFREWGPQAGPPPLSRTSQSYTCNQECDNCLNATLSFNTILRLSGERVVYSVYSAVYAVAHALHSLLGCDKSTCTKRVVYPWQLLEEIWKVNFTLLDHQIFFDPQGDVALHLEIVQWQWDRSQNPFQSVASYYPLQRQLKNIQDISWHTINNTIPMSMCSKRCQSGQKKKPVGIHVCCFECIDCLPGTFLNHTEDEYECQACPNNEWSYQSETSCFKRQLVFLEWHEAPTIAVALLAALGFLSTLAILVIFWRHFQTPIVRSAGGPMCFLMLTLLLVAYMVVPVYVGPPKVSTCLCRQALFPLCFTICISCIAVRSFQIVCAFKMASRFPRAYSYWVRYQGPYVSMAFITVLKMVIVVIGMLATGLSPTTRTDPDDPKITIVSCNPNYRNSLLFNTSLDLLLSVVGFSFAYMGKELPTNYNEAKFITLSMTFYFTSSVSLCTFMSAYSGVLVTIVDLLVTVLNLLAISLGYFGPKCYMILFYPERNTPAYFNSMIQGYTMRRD
Sequence (Q7RTX0 21-852): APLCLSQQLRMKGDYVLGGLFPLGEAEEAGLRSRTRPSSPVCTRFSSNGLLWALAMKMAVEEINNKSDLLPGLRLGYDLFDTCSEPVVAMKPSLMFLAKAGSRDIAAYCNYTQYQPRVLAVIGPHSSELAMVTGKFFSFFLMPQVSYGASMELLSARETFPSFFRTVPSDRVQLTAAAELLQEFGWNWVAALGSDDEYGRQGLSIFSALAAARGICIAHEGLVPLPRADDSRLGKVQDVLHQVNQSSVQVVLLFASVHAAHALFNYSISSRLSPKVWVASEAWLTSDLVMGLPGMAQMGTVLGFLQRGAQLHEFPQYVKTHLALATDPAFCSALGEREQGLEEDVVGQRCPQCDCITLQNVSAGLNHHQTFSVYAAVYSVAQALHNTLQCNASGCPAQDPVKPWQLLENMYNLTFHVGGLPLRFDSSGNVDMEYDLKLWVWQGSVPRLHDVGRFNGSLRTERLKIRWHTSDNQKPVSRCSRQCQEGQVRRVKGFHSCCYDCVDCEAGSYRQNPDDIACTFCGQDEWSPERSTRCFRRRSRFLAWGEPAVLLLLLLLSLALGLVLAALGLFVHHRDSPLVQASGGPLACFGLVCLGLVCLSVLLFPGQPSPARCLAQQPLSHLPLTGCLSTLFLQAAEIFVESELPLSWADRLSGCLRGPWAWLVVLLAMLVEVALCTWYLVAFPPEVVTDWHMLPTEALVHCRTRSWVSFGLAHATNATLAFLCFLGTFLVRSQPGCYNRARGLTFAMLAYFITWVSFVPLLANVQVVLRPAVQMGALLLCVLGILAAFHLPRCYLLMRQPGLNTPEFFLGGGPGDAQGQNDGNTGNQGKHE
Experiment: activation of the T1R2/T1R3 receptor
Note on pEC50: it is the negative log10 of concentration, concentration in mol/L.

- COMPOUND: "COCC(C1CCC(C)C(OC2OC(C)C(O)C(O)C2O)O1)C1CCC2C3=CC(=O)C4CC(OC5OC(CO)C(O)C(O)C5O)CCC4(C)C3CCC21C (centres unmarked) [Polypodoside E]"
  NUMERIC VALUE: 4.74

Can you share its pEC50? I mean this compound: CC1CCC(C(C)C2CCC3C4=CC(=O)C5CC(OC6OC(CO)C(OC7OC(C)C(O)C(O)C7O)C(O)C6O)CCC5(C)C4CCC32C)OC1OC1OC(C)C(O)C(O)C1O (centres unmarked) [Polypodoside G]
4.73
